target or test system: T1, BMPRIa receptor-Fc fusion (UniProt P36894 24-152, limits assumed)
T1 construct: also called ALK-3
T1 sequence (P36894 24-152 limits assumed): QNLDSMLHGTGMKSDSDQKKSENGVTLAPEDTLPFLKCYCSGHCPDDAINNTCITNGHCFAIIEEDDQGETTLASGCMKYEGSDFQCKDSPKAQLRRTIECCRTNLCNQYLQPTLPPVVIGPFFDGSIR
experiment: ELISA-like plate assay, captured BMP-7 from conditioned media, receptor-Fc detection
# BMPRIa binding (relative to wild type = 1.0) listing for each entry below

// known answers, use as guide
BMP-7 variant V26E (ligand, In conditioned media; numbering on mature BMP-7) STGGKQRSQNRSKTPKNQEALRMASEAENSSSDQRQACKKHELYVSFRDLGWQDWIIAPEGYAAYYCEGECAFPLNSYMNATNHAIVQTLVHFINPETVPKPCCAPTQLNAISVLYFDDSSNVILKKYRNMVVRACGCH	1.02 relative to wild type
BMP-7 variant N76D (ligand, In conditioned media; numbering on mature BMP-7) STGGKQRSQNRSKTPKNQEALRMASVAENSSSDQRQACKKHELYVSFRDLGWQDWIIAPEGYAAYYCEGECAFPLDSYMNATNHAIVQTLVHFINPETVPKPCCAPTQLNAISVLYFDDSSNVILKKYRNMVVRACGCH	0.84 relative to wild type
BMP-7 variant E60H (ligand, In conditioned media; numbering on mature BMP-7) STGGKQRSQNRSKTPKNQEALRMASVAENSSSDQRQACKKHELYVSFRDLGWQDWIIAPHGYAAYYCEGECAFPLNSYMNATNHAIVQTLVHFINPETVPKPCCAPTQLNAISVLYFDDSSNVILKKYRNMVVRACGCH	0.34 relative to wild type
BMP-7 variant L90T (ligand, In conditioned media; numbering on mature BMP-7) STGGKQRSQNRSKTPKNQEALRMASVAENSSSDQRQACKKHELYVSFRDLGWQDWIIAPEGYAAYYCEGECAFPLNSYMNATNHAIVQTTVHFINPETVPKPCCAPTQLNAISVLYFDDSSNVILKKYRNMVVRACGCH	0.48 relative to wild type
BMP-7 variant Y78P (ligand, In conditioned media; numbering on mature BMP-7) STGGKQRSQNRSKTPKNQEALRMASVAENSSSDQRQACKKHELYVSFRDLGWQDWIIAPEGYAAYYCEGECAFPLNSPMNATNHAIVQTLVHFINPETVPKPCCAPTQLNAISVLYFDDSSNVILKKYRNMVVRACGCH	0.75 relative to wild type
BMP-7 variant V123G (ligand, In conditioned media; numbering on mature BMP-7) STGGKQRSQNRSKTPKNQEALRMASVAENSSSDQRQACKKHELYVSFRDLGWQDWIIAPEGYAAYYCEGECAFPLNSYMNATNHAIVQTLVHFINPETVPKPCCAPTQLNAISVLYFDDSSNGILKKYRNMVVRACGCH	0.67 relative to wild type

Q) Query: BMPRIa binding (relative to wild type = 1.0); subject: BMP-7 variant L21R (ligand, In conditioned media; numbering on mature BMP-7) STGGKQRSQNRSKTPKNQEARRMASVAENSSSDQRQACKKHELYVSFRDLGWQDWIIAPEGYAAYYCEGECAFPLNSYMNATNHAIVQTLVHFINPETVPKPCCAPTQLNAISVLYFDDSSNVILKKYRNMVVRACGCH
A) 0.83 relative to wild type

Q) Query: BMPRIa binding (relative to wild type = 1.0); subject: BMP-7 variant E60P (ligand, In conditioned media; numbering on mature BMP-7) STGGKQRSQNRSKTPKNQEALRMASVAENSSSDQRQACKKHELYVSFRDLGWQDWIIAPPGYAAYYCEGECAFPLNSYMNATNHAIVQTLVHFINPETVPKPCCAPTQLNAISVLYFDDSSNVILKKYRNMVVRACGCH
A) 0.47 relative to wild type

Q) Query: BMPRIa binding (relative to wild type = 1.0); subject: BMP-7 variant L21E (ligand, In conditioned media; numbering on mature BMP-7) STGGKQRSQNRSKTPKNQEAERMASVAENSSSDQRQACKKHELYVSFRDLGWQDWIIAPEGYAAYYCEGECAFPLNSYMNATNHAIVQTLVHFINPETVPKPCCAPTQLNAISVLYFDDSSNVILKKYRNMVVRACGCH
A) 0.12 relative to wild type

Q) Query: BMPRIa binding (relative to wild type = 1.0); subject: BMP-7 variant V26N (ligand, In conditioned media; numbering on mature BMP-7) STGGKQRSQNRSKTPKNQEALRMASNAENSSSDQRQACKKHELYVSFRDLGWQDWIIAPEGYAAYYCEGECAFPLNSYMNATNHAIVQTLVHFINPETVPKPCCAPTQLNAISVLYFDDSSNVILKKYRNMVVRACGCH
A) 1.14 relative to wild type

Q) Query: BMPRIa binding (relative to wild type = 1.0); subject: BMP-7 variant N76S (ligand, In conditioned media; numbering on mature BMP-7) STGGKQRSQNRSKTPKNQEALRMASVAENSSSDQRQACKKHELYVSFRDLGWQDWIIAPEGYAAYYCEGECAFPLSSYMNATNHAIVQTLVHFINPETVPKPCCAPTQLNAISVLYFDDSSNVILKKYRNMVVRACGCH
A) 0.76 relative to wild type

Q) Query: BMPRIa binding (relative to wild type = 1.0); subject: BMP-7 variant Y78R (ligand, In conditioned media; numbering on mature BMP-7) STGGKQRSQNRSKTPKNQEALRMASVAENSSSDQRQACKKHELYVSFRDLGWQDWIIAPEGYAAYYCEGECAFPLNSRMNATNHAIVQTLVHFINPETVPKPCCAPTQLNAISVLYFDDSSNVILKKYRNMVVRACGCH
A) 1.36 relative to wild type

Q) Query: BMPRIa binding (relative to wild type = 1.0); subject: BMP-7 variant Y78D (ligand, In conditioned media; numbering on mature BMP-7) STGGKQRSQNRSKTPKNQEALRMASVAENSSSDQRQACKKHELYVSFRDLGWQDWIIAPEGYAAYYCEGECAFPLNSDMNATNHAIVQTLVHFINPETVPKPCCAPTQLNAISVLYFDDSSNVILKKYRNMVVRACGCH
A) 1.05 relative to wild type

Data provenance: patent US20060058231A1
